Assay: yeast display, Sf9 membrane polyspecificity reagent, FACS + sequencing; frameworks hold sequencing errors
Reported Property: polyreactivity (PSR sort gate)

1. QVQLVESGGGLVQAGGSLRLSCAASGSIFSSNAMGWYIQAPGKERELVAAITYSGGSTYYADSVKGRFTISRDNAKNTVYLQMNSLKPEDTAVYYCAADNGNWYDGYSYDYWGQGTQVTVSS: low polyreactivity
2. QVHLVESGGGLVQAGGSLRLSCAASGRTFIFYAMRWYRQAPGKERELVATISRSAGSTYYADSVKGRFTISRDNAKNTVYLQMNSLKPEDTAVYYCATQSRHYRGGKYYYWGQGTQVSVSS: high polyreactivity
3. QVQLVESGGGLVQAGGSLRLSCAASGTTFAGYAMGWYRPEPGKERELVSAISSGDSTNYADSVKGRFTISRDNAKNTVYLQMNSLKPEDTAVYYCNAEYRTRVFWWAASSYDYWGQGTQVTVSS: low polyreactivity
4. QVQLVETGGGLVQAGGSLRLSCAASGSIFYVYAMGWYRQAPRKERELVAAINTSGGSTYADSVKGRFTISRDNAKNTDYLQMNSLKPEDTAVYYCAADGYYEYTWGEYDSWGQGTQVTVSS: low polyreactivity
5. QVQLVESGGGLVQAGGSLRLSCAASGRTFDKYAMGWYRQAPGKERELVAAITRSGGSTYYADSVKGRFTISRDNAKNTVYLQMNSLKPEDTAVYYCAKRYWSYRWKYDYWGQGTQVTVSS: high polyreactivity

query: Look up polyreactivity (PSR sort gate) for this sequence: `QVQLVESGGGLVQAGGSLRISCAASGSIFGWYAMGWYRPAPGKEREFVATISRRGGRTYYADSVKGRFTISRDNAKNTVYLQMNSLKQEDTAVYYCAANSVYKEDYWGQVTQVTVSS`
result: high polyreactivity

query: I have this sequence here, `QVQLVESGGGLVQAGGSLRLSCAASGRIFSIYAMGWYRQAPGKERELVADITWTGGGTYYADSVKGRFTISRDNAKNTVYLQMNSLKPEDTAVYYCAADLYRKWWYDYWGQGTQVTVSS` , and I need its recorded polyreactivity (PSR sort gate).
result: high polyreactivity

query: What value of measured polyreactivity (PSR sort gate) is listed for `QVQLVESGGGLVQAGGSLRLSCAASGSTFDNYAMGWYRQAPGKERELVAAITTGVTTYYADSVKGRFTISRDNAKNTVYLQMISLKPEDTAVYYCAADYVSYSQARHEYGYWGQGTQVTVSS` ?
result: low polyreactivity

----------
Assay: yeast display, Sf9 membrane polyspecificity reagent, FACS + sequencing; frameworks hold sequencing errors
Reported Property: polyreactivity (PSR sort gate)

# example entries with known answers
1. QVQLEESGGRLVQAGARLRLSCAASGPIFHQYAMGWYRHAPGKERELGAAISSGGGSTYYADSVKGRFTISRDNAKNTGYLQMNSLKPEDTAVYYCNVYSVRWARFDFWGQGTQVTVSS: high polyreactivity
2. QVQLVESGGGLVQAGGSLRLTCAASGSIIWAYAKGWYRQAPGKERELVAAISSGGSTYYADSVKGRFTISRDNAKNIVYLQMNCLKPEDTPVFYCAASWSRRYYYWGQGTQVTVSS: high polyreactivity
3. QVQLVESGGGLVQAGGSLRLSCAASGSIFRNYAMGWYRQAPGKERELVAAITSIGGGTYYADSVKGRFTISRDNAKNTVYLQMNSLKPEDTAVYYCAAVSGPFVQTSGNGEYDYWGQGTQVTVSS: low polyreactivity
4. QVQLVESGGGIVQAGGSLRLSCAASGSTFGVYAMGWYRQAPGKERDLVSVIRRGGGTDYADSVKGRFTISRDNAKNTVYLQMNSLNPEVTAVYYCAATVVRSGYLTLEMDYWGQGTQVTVSS: low polyreactivity
5. QVQLVESGGGLVQAGGSLRLSCAASGSTFRNYAMGWYRQAPGKERELVATISASGGSTYYADSVKGRFTISRDNAKNTVYLQMNSLKPEDTAVYYCNAVVKLWGLVIPPGDYDYWGQGTQVTVSS: high polyreactivity
6. QVQLVESGGGLVQAGGSLRLSCAASGSIFGYYAMGWYRQAPGKERELVAAISWSGGRTYYADSVKGRFTISRDNAKNTVYLQMNSLKPEDTAVYYCNARWRSGPRAYDYWGQGTQVTVSS: high polyreactivity

query: Please report the recorded polyreactivity (PSR sort gate) for `QVQLVESGGGLVQAGGSLRLSCAASGSIFIPNAMGWYRQAPGKERELVAAISLSDTTTYYADSVKGRFTISRDNAKNTVYLKMNSLKPEDTAVYYCAADYWFYPTSPDMDYLGQGTQVTVSS` .
result: low polyreactivity

query: Item `QVQLVESGGGLVQAGGSLRLSCAASGITFWRYAMGWYRQAPGKERELVAAIDWSGGDTYYADSVKGRFTISRDNAKNTVYLQMNRLKPEDTAVYYCATDRYAYKLYDYWGQGTQVTVSS` has what recorded polyreactivity (PSR sort gate)?
result: low polyreactivity

query: Any idea what polyreactivity (PSR sort gate) was measured for `QVQLVESGGGLVQAGGSLRLSCAASGFIFVVYTMGWYRQAPGKERELVAAITSGGSTYYADSVKGRFTISRDNAKNTVYLQMNSLKPEDTAVYYCYALASRYPAYYYWGQGTQVTVSS` ?
result: low polyreactivity

query: Could you tell me which polyreactivity (PSR sort gate) is on file for `QVQLVESGGGLVQAGGSLRLSCAASGFIFYYYAMGWYRQAPGKERELVAAISSGDDTTYADSVKGRFTISRDNAKNTVYLKMNSLKPEDTAVYYCNSERSVKQQGPYGYWGQGTQVTVSS` ?
result: low polyreactivity
